From: patent US10800813

As shown below, each of these binders has a reported Ki value.
assay_target: T1, human plasma Kallikrein (human, UniProt P03952 20-638, limits assumed)
T1 construct: also called hPK; human PK
T1 sequence (P03952 20-638 limits assumed): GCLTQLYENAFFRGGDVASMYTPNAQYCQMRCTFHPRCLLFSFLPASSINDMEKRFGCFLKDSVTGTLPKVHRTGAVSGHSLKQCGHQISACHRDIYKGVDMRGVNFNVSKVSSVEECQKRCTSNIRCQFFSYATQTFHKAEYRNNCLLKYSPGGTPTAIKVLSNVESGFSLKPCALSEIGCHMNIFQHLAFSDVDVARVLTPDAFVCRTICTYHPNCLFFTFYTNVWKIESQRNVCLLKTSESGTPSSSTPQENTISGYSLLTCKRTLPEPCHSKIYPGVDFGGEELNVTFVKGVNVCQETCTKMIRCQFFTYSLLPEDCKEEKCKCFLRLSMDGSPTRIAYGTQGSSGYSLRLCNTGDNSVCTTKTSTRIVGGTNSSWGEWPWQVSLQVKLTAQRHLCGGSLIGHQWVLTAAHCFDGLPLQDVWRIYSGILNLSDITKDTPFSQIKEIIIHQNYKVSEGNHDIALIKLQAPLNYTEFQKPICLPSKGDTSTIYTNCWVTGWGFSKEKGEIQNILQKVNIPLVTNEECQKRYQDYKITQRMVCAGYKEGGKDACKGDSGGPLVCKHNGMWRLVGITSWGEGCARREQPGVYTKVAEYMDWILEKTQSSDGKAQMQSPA
experiment_summary: enzyme inhibition assay
Numbered stars: 1 amine (or outer) side, 2 acyl side, 3 side chain; on linkers, the order of the positions; unused ones are H or OH. Bridge positions count the residues as written; N and C are the ends. Ends that are not written are not given here. TBMB = c1c(C[*:1])cc(C[*:3])cc1C[*:2]
property_name: Ki

> print(dat)
                                     binder  experimental.value
1  ACADPWACLFRRPCA (linker 2-8-14 via TBMB; not fully specified (N-terminus, C-terminus), also called PK113) [06-63 T]             1280 nM
2  ACSWPARCNHQDLCA (linker 2-8-14 via TBMB; not fully specified (N-terminus, C-terminus), also called PK105) [06-57]              0.4 nM
3  ACTWPARCTHQNWCA (linker 2-8-14 via TBMB; not fully specified (N-terminus, C-terminus), also called PK107) [06-09]              1.2 nM
